# Tested on: M14
# Assay Name: NCI tumour cell line growth inhibition, 48 h
Calls of active or inactive are those of the source. Rule as the data show it: active = GI50 up to about 1.1 µM and inactive = higher.
Valid outcomes are listed here; reply with one: true (active), false (inactive)

For orientation, consider the following solved cases.
{"Compound": "C=C(C(=O)O)C1CCC(CC/C=C(\\C)CC/C=C(\\C)CCC=C(C)C)CO1 (centres undefined)", "Category": "false"}
{"Compound": "O=S1(=O)c2ccccc2C(=NO)c2ccccc21", "Category": "false"}
{"Compound": "N#CNC(=N)NC(=O)/C=C/C=C/c1ccc(Cl)cc1", "Category": "false"}
{"Compound": "CN(C)CCN(C)C(=O)c1cccc2cccc(C(=O)O)c12", "Category": "false"}
{"Compound": "CC1CCC(C(C)C)C(O[C@@H]2OC(=O)C[C@@H]2Sc2ccccc2)C1 (some centres undefined)", "Category": "false"}

Hello, I am checking results. What call was entered for COC(=O)C(CCc1ccccc1I)C1=CCC2(CC1)OCCO2 (centres undefined) ?
false

Identify the outcome logged in this assay for the compound shown: CN(C)/N=N/c1ccc2[nH]c(=O)[nH]c2c1
false

Called result for CC(NC(=O)N(C)C)NC(=O)N(C)C
false

// param item: O=S1(=O)OCCOS(=O)(=O)C1F ; yields the recorded call
false

Recorded test call requested for COC(=O)C1C(OCc2ccccc2)C2CCC1(OC)C=C2C (centres undefined)
false

Outcome? C/C=N\n1c(C)c(C#N)c(C#N)c1N
false

Field: outcome | Entry: Cc1ccc([N+](=O)[O-])cc1S(=O)(=O)Nc1ccc(C2=NN(S(=O)(=O)c3cc([N+](=O)[O-])ccc3C)C(c3ccccc3)C2)cc1 (centres undefined)
false

Record lookup: outcome of this test for C(#CC1(Nc2ccccc2)CCN(Cc2ccccc2)CC1)C1(Nc2ccccc2)CCN(Cc2ccccc2)CC1 ?
false

Hello, I am checking results. What call was entered for Nc1nc(N)c2ncn(-c3ccc(Br)cc3)c2n1 ?
false

What did the test return for Cc1cn(CCCCCCOC(=O)NC(CCCNC(N)=O)C(=O)O)c(=O)[nH]c1=O (centres undefined) ?
false
